Experiment: in vitro
Type: in vitro ADME, human
Settings: 100 μM peptide, 25% (v/v in H2O) human serum, 37 °C, RP-HPLC peak integration, monoexponential decay fit, 95% CI 234–542; read-out: half-life (t1/2) in human serum
Where no end group is shown, it is not given here.
endpointName: half-life at 100 μM (min)
State just the number; it will be interpreted in min.

Returns the measured half-life at 100 μM for the input substance. Input: WRRRYRRWRRRRRWRRRPRR-NH2 [vCPP2319]
326
